- Assay Target: EGFR(L858R_T790M_C797S) (aa695-end, Invitrogen) (Homo sapiens, UniProt P00533, C797S/L858R/T790M)
- Sequence (P00533 695-1210 T790M/C797S/L858R): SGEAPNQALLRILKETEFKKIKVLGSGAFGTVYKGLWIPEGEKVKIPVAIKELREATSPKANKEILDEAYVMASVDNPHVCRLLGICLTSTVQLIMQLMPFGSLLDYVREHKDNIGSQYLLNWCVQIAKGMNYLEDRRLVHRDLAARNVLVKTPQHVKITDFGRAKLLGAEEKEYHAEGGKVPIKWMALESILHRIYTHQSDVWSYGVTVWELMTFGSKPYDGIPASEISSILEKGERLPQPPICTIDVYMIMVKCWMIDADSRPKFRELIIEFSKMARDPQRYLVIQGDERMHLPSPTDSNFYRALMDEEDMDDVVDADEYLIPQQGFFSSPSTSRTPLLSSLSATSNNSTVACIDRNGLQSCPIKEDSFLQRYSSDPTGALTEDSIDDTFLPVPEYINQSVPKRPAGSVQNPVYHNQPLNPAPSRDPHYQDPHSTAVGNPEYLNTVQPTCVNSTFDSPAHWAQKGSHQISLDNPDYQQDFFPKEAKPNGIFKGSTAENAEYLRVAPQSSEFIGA
- Assay Procedure: Biochemical EGFR inhibition assay (TR-FRET), L858R/T790M/C797S mutant
- Study Conditions: ATP at Km, 15 min pre-incubation, 60 min reaction; read-out: LR_TM_CS (Km ATP) IC50
Property Label: IC50 (nM)

>>> print(df.to_string())
                                     smiles  property_label  value
0  CCc1cc(Nc2nc(Nc3cccc4c3N(S(C)(=O)=O)CC4)c3cc[nH]c3n2)c(OC)cc1N1CCC(N2CCN(C)CC2)CC1            IC50    1.1

P. CCN1CCN(C2CCN(c3c(F)cc(Nc4nc(Nc5cccc6c5N(S(C)(=O)=O)CC6)c5cc[nH]c5n4)cc3F)CC2)CC1
Q. COc1cc(C2CCN(C)CC2)c(C)cc1Nc1nc(Nc2cccc3c2N(S(C)(=O)=O)CC3)c2cc[nH]c2n1
R. CN(C)C1CCN(c2c(F)cc(Nc3ncc(Br)c(Nc4cccc5c4N(S(C)(=O)=O)CC5)n3)c3c2CCO3)CC1
S. COc1cc(N2CCC(N3CCN(C)CC3)CC2)ccc1Nc1ncc(Cl)c(Nc2ccc(F)c3c2N(S(C)(=O)=O)CC3)n1
Query: Please list these compounds in decreasing order of IC50. Answer by listing the labels in the order asked for.
Response: Q, P, R, S

I. COc1cc(N2CCC(N3CCN(C)C(=O)C3)CC2)ccc1Nc1nc(Nc2cccc3c2N(S(C)(=O)=O)CC3)c2cc[nH]c2n1
II. COc1cc(N2CCC(N3CCN(C)CC3)CC2)ccc1Nc1ncc(Cl)c(Nc2cccc3c2N(C(=O)N(C)C)CC3)n1
III. CN(C)C1CCN(c2ccc(Nc3ncc(Br)c(Nc4cccc5c4N(S(C)(=O)=O)CC5)n3)c3c2CCC3)CC1
Query: List items by IC50 in falling order. Write the labels out in the order the request specifies.
Response: II, I, III
(II: 369 nM, I: 1.5 nM, III: 0.32 nM)

1. COc1cc(N2CCC(N3CCN(C)CC3)CC2)ccc1Nc1ncc(C#N)c(Nc2cccc3c2N(S(C)(=O)=O)CC3)n1
2. COc1cc(N2CCC3(CCN(C)CC3)CC2)c(Cl)cc1Nc1ncc(Br)c(Nc2cccc3c2N(S(C)(=O)=O)CC3)n1
Query: Sort 1 and 2 by IC50 descending and give the first. Indicate which entry you chose by stating its label.
Response: 1

1. CN1CCN(C2CCN(c3ccc(Nc4nc(Nc5cccc6c5N(S(C)(=O)=O)CC6)c5cc[nH]c5n4)cn3)CC2)CC1
2. CN1CCN(c2ccc(Nc3nc(Nc4cccc5c4N(S(C)(=O)=O)CC5)c4cc[nH]c4n3)c(F)c2F)CC1
Query: # return whichever of 1 and 2 has the smaller IC50 Give the chosen item's label as your response.
Response: 1

1. CN1CCN(C2CCN(c3ccc(Nc4nc(Nc5cccc6c5N(S(C)(=O)=O)CC6)c5cc[nH]c5n4)c4c3CCO4)CC2)CC1
2. COc1cc(N2CCC(N3CCN(C)CC3)CC2)ccc1Nc1ncc(Br)c(Nc2cccc3c2N(S(C)(=O)=O)CC3)n1
Query: Between the two listed entries 1 and 2 , which has its IC50 at the higher number? Pick one and reply with its label.
Response: 1
(1: 1.2 nM, 2: 0.21 nM)
